# targetUnderTest: human DLK (Homo sapiens)
# Sequence (Q12852 1-859): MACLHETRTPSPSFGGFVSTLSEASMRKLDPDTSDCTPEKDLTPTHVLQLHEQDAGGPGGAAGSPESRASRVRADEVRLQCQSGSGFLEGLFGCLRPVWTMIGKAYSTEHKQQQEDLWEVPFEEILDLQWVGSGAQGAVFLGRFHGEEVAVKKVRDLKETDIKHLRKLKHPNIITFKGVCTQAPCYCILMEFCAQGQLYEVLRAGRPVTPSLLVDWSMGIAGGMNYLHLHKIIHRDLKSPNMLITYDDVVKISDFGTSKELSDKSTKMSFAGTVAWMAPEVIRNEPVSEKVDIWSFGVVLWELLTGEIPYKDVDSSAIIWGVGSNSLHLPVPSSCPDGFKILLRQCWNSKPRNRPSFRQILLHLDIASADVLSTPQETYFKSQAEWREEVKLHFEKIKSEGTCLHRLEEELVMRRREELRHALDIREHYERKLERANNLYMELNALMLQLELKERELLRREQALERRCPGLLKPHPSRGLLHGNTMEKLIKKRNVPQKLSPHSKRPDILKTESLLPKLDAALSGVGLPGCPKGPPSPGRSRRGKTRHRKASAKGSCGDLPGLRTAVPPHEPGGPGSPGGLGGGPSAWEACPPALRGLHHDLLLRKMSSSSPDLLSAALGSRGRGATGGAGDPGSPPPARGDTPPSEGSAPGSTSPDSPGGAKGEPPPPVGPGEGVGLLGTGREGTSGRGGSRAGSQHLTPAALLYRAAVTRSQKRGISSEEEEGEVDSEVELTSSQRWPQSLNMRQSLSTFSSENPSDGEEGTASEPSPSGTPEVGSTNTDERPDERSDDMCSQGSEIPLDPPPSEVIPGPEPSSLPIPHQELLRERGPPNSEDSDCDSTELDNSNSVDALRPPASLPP
# protocolDescription: DLK Kd Determinations (KINOMEscan KdELECT, DiscoveRx)
# recordedConditions: fusion protein of full length human DLK (amino acids 1-859) and NFkB DNA binding domain; qPCR readout; duplicate
quantityName: Kd
For clarity, give the value followed by its unit.

Some solved cases for reference:
compoundSmiles: CC(=O)N1C[C@@H]2[C@H](C1)[C@H]2n1cc(-c2cnc(N)c(C(F)(F)F)c2)nc1CC(F)(F)F
Kd: 97 nM

compoundSmiles: CC(=O)N1C[C@@H]2[C@H](C1)[C@H]2n1cc(-c2cnc(N)c(OC(F)(F)F)c2)nc1CC1CC1
Kd: 77 nM

Let us examine a further case.
Query :: Please report the recorded Kd for "Nc1ncc(-c2cn(C3CC3)c(C3CC3)n2)cc1C(F)(F)F" .
Result :: 240 nM
